Recorded Emax for the following compounds
- EXPERIMENTAL TARGET: F876L mutant Androgen Receptor (AR-F876L) (Homo sapiens (Human), UniProt P10275, F877L)
- Sequence (P10275 whole entry F877L): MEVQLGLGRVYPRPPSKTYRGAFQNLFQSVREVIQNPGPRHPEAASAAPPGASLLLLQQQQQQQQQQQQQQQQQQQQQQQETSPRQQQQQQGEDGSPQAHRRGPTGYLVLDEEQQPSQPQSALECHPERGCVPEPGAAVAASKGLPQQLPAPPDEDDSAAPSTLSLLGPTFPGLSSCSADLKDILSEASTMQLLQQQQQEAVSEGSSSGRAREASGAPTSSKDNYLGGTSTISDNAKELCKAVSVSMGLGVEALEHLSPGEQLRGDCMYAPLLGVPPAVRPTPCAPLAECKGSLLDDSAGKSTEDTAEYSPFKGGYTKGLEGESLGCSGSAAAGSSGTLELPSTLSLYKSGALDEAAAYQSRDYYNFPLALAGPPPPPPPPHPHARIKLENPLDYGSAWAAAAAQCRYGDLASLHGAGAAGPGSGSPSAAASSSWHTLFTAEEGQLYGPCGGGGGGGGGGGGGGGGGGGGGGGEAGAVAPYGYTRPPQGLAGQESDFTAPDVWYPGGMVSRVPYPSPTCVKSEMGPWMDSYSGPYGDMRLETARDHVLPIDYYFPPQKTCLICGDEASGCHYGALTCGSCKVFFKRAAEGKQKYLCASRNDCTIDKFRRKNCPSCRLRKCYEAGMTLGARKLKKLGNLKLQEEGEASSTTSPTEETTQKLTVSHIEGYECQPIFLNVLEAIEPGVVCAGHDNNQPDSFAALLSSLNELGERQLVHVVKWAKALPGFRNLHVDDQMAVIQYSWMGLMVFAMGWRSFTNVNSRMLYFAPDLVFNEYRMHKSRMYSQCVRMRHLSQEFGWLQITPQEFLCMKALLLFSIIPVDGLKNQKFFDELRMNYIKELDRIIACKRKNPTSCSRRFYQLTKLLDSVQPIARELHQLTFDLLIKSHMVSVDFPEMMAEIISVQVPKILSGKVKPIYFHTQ
- TEST: LNCaP-AR-F876L AG reporter assay (agonist mode)
- Format: cell-based
- CONDITION NOTES: maximum % stimulation (agonist response) over the tested concentration range; read-out: LNCaP-AR-F876L AG MAX % Stim
Output spec: scalar in %, unitless text.

Answered cases to consult:
INSERT INTO measurements (compound, recorded_result) VALUES
  ('CNC(=O)N1CCC(CNC(=O)c2ccc(N3C(=S)N(c4cnc(C#N)c(C(F)(F)F)c4)C(=O)C34CCC4)cc2)CC1 [Cpd 73]', 0.5),
  ('CCOC(=O)N1CCC(CNC(=O)c2ccc(N3C(=S)N(c4cnc(C#N)c(C(F)(F)F)c4)C(=O)C34CCC4)cc2)CC1 [Cpd 49]', 0.4),
  ('N#Cc1ncc(N2C(=O)C3(CCC3)N(c3ccc4c(c3)CCNC4)C2=S)cc1C(F)(F)F [Cpd 108]', 0.2),
  ('Cn1cc(N2C(=S)N(c3cnc(C#N)c(C(F)(F)F)c3)C(=O)C23CCC3)ccc1=O [Cpd 133]', 0.6),
  ('CN(C)C1CCC(Oc2ccc(N3C(=S)N(c4cnc(C#N)c(C(F)(F)F)c4)C(=O)C34CCC4)cc2)CC1 (stereo not shown) [Cpd 81]', 0.1),
  ('Cn1cc2cc(N3C(=S)N(c4cnc(C#N)c(C(F)(F)F)c4)C(=O)C34CCC4)ccc2n1 [Cpd 174]', 0.1);

# get_value(readout='Emax', item= N#Cc1ncc(N2C(=O)C3(CCC3)N(c3ccc(OC4CCS(=O)(=O)CC4)cc3)C2=S)cc1C(F)(F)F [Cpd 13] ) 1

----------
- EXPERIMENTAL TARGET: wild-type Androgen Receptor (AR-wt) (Homo sapiens (Human), UniProt P10275)
- Sequence (P10275 whole entry): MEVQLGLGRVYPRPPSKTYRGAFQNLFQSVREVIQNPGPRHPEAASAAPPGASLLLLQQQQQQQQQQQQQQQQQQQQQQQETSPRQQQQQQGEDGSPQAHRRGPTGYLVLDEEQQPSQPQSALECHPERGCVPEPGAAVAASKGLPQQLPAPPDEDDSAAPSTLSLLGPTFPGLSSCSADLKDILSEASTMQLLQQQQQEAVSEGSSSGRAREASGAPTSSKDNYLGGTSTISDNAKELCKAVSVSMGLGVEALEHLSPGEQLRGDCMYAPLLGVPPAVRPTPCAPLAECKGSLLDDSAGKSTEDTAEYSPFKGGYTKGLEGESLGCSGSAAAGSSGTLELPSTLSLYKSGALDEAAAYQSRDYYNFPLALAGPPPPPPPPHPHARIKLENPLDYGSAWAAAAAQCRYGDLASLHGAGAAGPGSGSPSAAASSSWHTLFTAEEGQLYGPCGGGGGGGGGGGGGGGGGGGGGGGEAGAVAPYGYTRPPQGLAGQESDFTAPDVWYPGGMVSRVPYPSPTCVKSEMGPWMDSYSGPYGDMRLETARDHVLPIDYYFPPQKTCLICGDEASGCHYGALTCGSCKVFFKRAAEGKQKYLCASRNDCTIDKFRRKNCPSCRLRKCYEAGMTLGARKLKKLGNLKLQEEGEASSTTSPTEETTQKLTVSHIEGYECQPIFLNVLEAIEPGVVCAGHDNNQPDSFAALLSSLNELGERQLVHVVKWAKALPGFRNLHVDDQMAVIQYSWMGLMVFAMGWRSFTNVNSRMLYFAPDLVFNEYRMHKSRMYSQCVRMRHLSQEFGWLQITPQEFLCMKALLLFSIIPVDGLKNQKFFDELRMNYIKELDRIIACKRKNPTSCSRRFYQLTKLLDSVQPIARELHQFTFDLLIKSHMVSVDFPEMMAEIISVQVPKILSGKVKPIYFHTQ
- TEST: LNCaP-AR-wt ANT reporter assay (antagonist mode)
- Assay type: cell-based
- CONDITION NOTES: antagonist mode; pIC50 = −Log10(IC50 in Molar); read-out: LNCaP-AR-wt ANT pIC50 (converted)
API: label(entry) gives 1 (yes) if the entry's IC50 is strictly smaller than 300 nM; on equality or larger values it gives 0 (no).

INSERT INTO measurements (compound, classification) VALUES
  ('N#Cc1ncc(N2C(=O)C3(CCC3)N(c3ccc(CN4CCN(CCO)CC4)cc3)C2=S)cc1C(F)(F)F [Cpd 227]', '0 (no)'),
  ('Cc1cc(N2C(=O)C3(CCC3)N(c3ccc(OC4CCN(CC#N)CC4)nc3)C2=S)cnc1C#N [Cpd 90]', '1 (yes)'),
  ('N#Cc1ncc(N2C(=O)C3(CCC3)N(c3ccc(OCC4CC(F)(F)CN4)cc3)C2=S)cc1C(F)(F)F (stereo not drawn) [Cpd 54]', '1 (yes)');

Does the reported IC50 of CC(=O)N1CCC(Cn2ncc3cc(N4C(=S)N(c5cnc(C#N)c(C(F)(F)F)c5)C(=O)C45CCC5)ccc32)CC1 [Cpd 124] stay below 300 nM? 1 (yes)

Consider the compound CN1CCC(Oc2ccc(N3C(=S)N(c4cnc(C#N)c(C(F)(F)F)c4)C(=O)C34CCC4)cc2)CC12CCC2 (racemic) [Cpd 178] . Is its IC50 strictly less than 300 nM? 1 (yes)

Report whether reported IC50 is lower than 300 nM (strictly) for N#Cc1ncc(N2C(=O)C3(CCC3)N(c3ccc(OC4CCN(CCF)CC4)nc3)C2=S)cc1C(F)(F)F [Cpd 67] 1 (yes)

----------
- EXPERIMENTAL TARGET: wild-type Androgen Receptor (AR-wt) (Homo sapiens (Human), UniProt P10275)
- TEST: LNCaP-AR-wt ANT reporter assay (antagonist mode)
- Assay type: cell-based
- CONDITION NOTES: antagonist mode; pIC50 = −Log10(IC50 in Molar); read-out: LNCaP-AR-wt ANT pIC50 (converted)
EXPERIMENTAL READOUT: IC50 (µM)
Answer in µM, number only, no unit symbol.

Please review the entries below; each comes with its answer.
INSERT INTO results (smiles_string, experimental_target, recorded_result) VALUES
  ('N#Cc1ncc(N2C(=O)C3(CCC3)N(c3ccc4c(c3)CCNC4)C2=S)cc1C(F)(F)F', 'wild-type Androgen Receptor (AR-wt) (Homo sapiens (Human), UniProt P10275)', 1.66),
  ('CN1CCN(Cc2ccc(N3C(=S)N(c4cnc(C#N)c(Cl)c4)C(=O)C34CCC4)cc2)CC1', 'wild-type Androgen Receptor (AR-wt) (Homo sapiens (Human), UniProt P10275)', 0.372),
  ('CN1CCC(Cc2ccc(N3C(=S)N(c4cnc(C#N)c(C(F)(F)F)c4)C(=O)C34CCC4)cc2)CC1', 'wild-type Androgen Receptor (AR-wt) (Homo sapiens (Human), UniProt P10275)', 0.832);

Look up IC50 with wild-type Androgen Receptor (AR-wt) (Homo sapiens (Human), UniProt P10275) for this compound: COCCN1CCC(Oc2ccc(N3C(=S)N(c4cnc(C#N)c(C(F)(F)F)c4)C(=O)C34CCC4)cn2)CC1 0.0295

----------
- EXPERIMENTAL TARGET: wild-type Androgen Receptor (AR-wt) (Homo sapiens (Human), UniProt P10275)
- TEST: LNCaP-AR-wt AG reporter assay (agonist mode)
- Assay type: cell-based
- CONDITION NOTES: maximum % stimulation (agonist response) over the tested concentration range; read-out: LNCaP-AR-wt AG MAX % Stim
Recorded Emax by entry
The figure you give is taken to be in %; do not add the unit.

Past entries and their recorded results:
INSERT INTO assay_data (molecule, experimental_readout, measurement_unit, recorded_result) VALUES
  ('N#Cc1ncc(N2C(=O)C3(CCC3)N(c3ccc(CN4CCNCC4)cc3)C2=S)cc1C(F)(F)F', 'Emax', '%', 0),
  ('Cc1cc(N2C(=O)C3(CCC3)N(c3ccc(OC4CCN(CC#N)CC4)nc3)C2=S)cnc1C#N', 'Emax', '%', 0.6),
  ('N#Cc1ncc(N2C(=O)C3(CCC3)N(c3ccc(O[C@H]4CCNC[C@H]4F)cc3)C2=S)cc1C(F)(F)F (racemic)', 'Emax', '%', 0.9);

Please give the measured Emax for this molecule: CC(C)(C)OC(=O)N1CCc2cc(N3C(=S)N(c4cnc(C#N)c(C(F)(F)F)c4)C(=O)C34CCC4)ccc2C1 0.1

Entry N#Cc1ncc(N2C(=O)C3(CCC3)N(c3ccc(N4CCN(C(=O)N5CCCC5)CC4)cc3)C2=S)cc1C(F)(F)F : reported Emax = ? 0.6

----------
- EXPERIMENTAL TARGET: F876L mutant Androgen Receptor (AR-F876L) (Homo sapiens (Human), UniProt P10275, F877L)
- TEST: LNCaP-AR-F876L AG reporter assay (agonist mode)
- Format: cell-based
- CONDITION NOTES: maximum % stimulation (agonist response) over the tested concentration range; read-out: LNCaP-AR-F876L AG MAX % Stim
Emax values, listed per item
Numeric answer only, unit % assumed.

INSERT INTO results (compound, experimental_readout, recorded_result) VALUES
  ('CN1CC2(CC(Oc3ccc(N4C(=S)N(c5cnc(C#N)c(C(F)(F)F)c5)C(=O)C45CCC5)cc3)C2)C1', 'Emax', 0.2),
  ('Cc1cc(N2C(=O)C3(CCC3)N(c3ccc(OC4CCSCC4)nc3)C2=S)cnc1C#N', 'Emax', 0.3),
  ('CNC(=O)N1CCN(Cc2ccc(N3C(=S)N(c4cnc(C#N)c(C(F)(F)F)c4)C(=O)C34CCC4)cc2)CC1', 'Emax', 0.1),
  ('COc1cc(N2C(=O)C3(CCC3)N(c3ccc(OC4CCNCC4)nc3)C2=S)cnc1C#N', 'Emax', 0.1),
  ('N#Cc1ncc(N2C(=O)C3(CCC3)N(c3ccc(OCC4CC(F)(F)CN4)cc3)C2=S)cc1C(F)(F)F (stereo not drawn)', 'Emax', 0.7),
  ('COC(=O)C1CCC(N2C(=S)N(c3cnc(C#N)c(C(F)(F)F)c3)C(=O)C23CCC3)CC1 (stereo not drawn)', 'Emax', 0.3),
  ('CC(C)(C)OC(=O)N1C2CCC1C(F)C(Oc1ccc(N3C(=S)N(c4cnc(C#N)c(C(F)(F)F)c4)C(=O)C34CCC4)cc1)C2 (stereo not drawn)', 'Emax', 0.6),
  ('CN1CC2CC1CC2Oc1ccc(N2C(=S)N(c3cnc(C#N)c(C(F)(F)F)c3)C(=O)C23CCC3)cn1 (stereo not drawn)', 'Emax', 0.4);

// Emax lookup, key: CN1CC[C@@H](Oc2ccc(N3C(=S)N(c4cnc(C#N)c(C(F)(F)F)c4)C(=O)C34CCC4)cc2)C1 0.8

Please give the measured Emax for this compound: COCCn1ncc2cc(N3C(=S)N(c4cnc(C#N)c(C(F)(F)F)c4)C(=O)C34CCC4)ccc21 0.1
